Assay: Partition coefficient (logP)
Type: physicochemical
Conditions: octanol/water
Outcome label depends on logP relative to 4: at/above gives T, below gives F.

Solved cases below.
• CC(C)(C)OC(=O)Nc1ccc(CC(=O)C2c3cccc(O)c3C(=O)c3c(O)cccc32)cc1 = T
• Nc1ccc(CC(=O)C2c3cccc(O)c3C(=O)c3c(O)cccc32)cc1 = F
• CC(C(=O)C1c2cccc(O)c2C(=O)c2c(O)cccc21)c1ccc(C(=O)c2ccccc2)cc1 (stereo not given) = T
• COc1ccc(CC(=O)C2c3cccc(O)c3C(=O)c3c(O)cccc32)cc1O = F
• O=C1c2c(O)cccc2C(C(=O)Cc2ccc(C(F)(F)F)cc2)c2cccc(O)c21 = T
• CCOc1ccc(CC(=O)C2c3cccc(O)c3C(=O)c3c(O)cccc32)cc1 = T
• O=C1c2c(O)cccc2C(C(=O)Cc2ccc(Cl)cc2)c2cccc(O)c21 = T
• CCCCOc1ccc(CC(=O)C2c3cccc(O)c3C(=O)c3c(O)cccc32)cc1 = T

Decide: logP of O=C1c2c(O)cccc2C(C(=O)Cc2c[nH]c3ccccc23)c2cccc(O)c21 >= 4? F

Decide: logP of CCCOc1ccc(CC(=O)C2c3cccc(O)c3C(=O)c3c(O)cccc32)cc1 >= 4? T

Decide: logP of COc1cccc(CC(=O)C2c3cccc(O)c3C(=O)c3c(O)cccc32)c1 >= 4? T

Decide: logP of CN(C)c1ccc(CC(=O)C2c3cccc(O)c3C(=O)c3c(O)cccc32)cc1 >= 4? T

Decide: logP of CC(C)Cc1ccc(C(C)C(=O)C2c3cccc(O)c3C(=O)c3c(O)cccc32)cc1 (stereo not given) >= 4? T

Decide: logP of COc1cccc(COc2ccc(CC(=O)C3c4cccc(O)c4C(=O)c4c(O)cccc43)cc2)c1 >= 4? T

Decide: logP of O=C1c2c(O)cccc2C(C(=O)Cc2ccc(Cl)c(Cl)c2)c2cccc(O)c21 >= 4? T

Decide: logP of COc1ccccc1CC(=O)C1c2cccc(O)c2C(=O)c2c(O)cccc21 >= 4? T

Decide: logP of CC(C)Oc1ccc(CC(=O)C2c3cccc(O)c3C(=O)c3c(O)cccc32)cc1 >= 4? T

###

Items are presented alongside their recorded logP.
Test: Partition coefficient (logP)
Assay type: physicochemical
Conditions: octanol/water

Below, each entry is followed by its recorded logP result.
- CN(O)C(=O)Cc1ccc(CC(=O)C2c3cccc(O)c3C(=O)c3c(O)cccc32)cc1: 3.02
- O=C1c2c(O)cccc2C(C(=O)Cc2ccc(I)cc2)c2cccc(O)c21: 4.8

Retrieve logP measured for O=C(O)Cc1ccc(CC(=O)C2c3cccc(O)c3C(=O)c3c(O)cccc32)cc1 and print it. 2.84

###

Items are presented alongside their recorded logP.
Assay: Partition coefficient (logP)
Type: physicochemical
Conditions: octanol/water
I'd appreciate a reply containing only the number, no unit.

Below, each entry is followed by its recorded logP result.
- COc1ccc(CC(=O)C2c3cccc(O)c3C(=O)c3c(O)cccc32)cc1OC: 3.77
- Cc1ccc(CC(=O)C2c3cccc(O)c3C(=O)c3c(O)cccc32)cc1: 4.54
- CCOC(=O)c1ccc(CC(=O)C2c3cccc(O)c3C(=O)c3c(O)cccc32)cc1: 4.34
- COc1ccc(COc2ccc(CC(=O)C3c4cccc(O)c4C(=O)c4c(O)cccc43)cc2)cc1: 4.91

Now turn to the next compound.
Retrieve logP measured for COC(=O)c1ccc(CC(=O)C2c3cccc(O)c3C(=O)c3c(O)cccc32)cc1 and print it. 4.07

###

Test: Concentration required to inhibit 50% growth of HaCaT cells
Format: functional, cell-based
Conditions: Homo sapiens
Items are presented alongside their recorded IC50.
The answer should read as a number with its unit following.

Below, each entry is followed by its recorded IC50 result.
- Nc1ccc(CC(=O)C2c3cccc(O)c3C(=O)c3c(O)cccc32)cc1: 1200 nM
- O=C1c2c(O)cccc2C(C(=O)Cc2ccc(I)cc2)c2cccc(O)c21: 3100 nM
- O=C1c2c(O)cccc2C(C(=O)Cc2ccc3c(c2)OCO3)c2cccc(O)c21: 3300 nM
- O=C1c2c(O)cccc2C(C(=O)Cc2ccc(OCc3ccccc3)cc2)c2cccc(O)c21: 2400 nM
- O=C1c2c(O)cccc2C(C(=O)Cc2ccc(Cl)c(Cl)c2)c2cccc(O)c21: 1200 nM

Retrieve IC50 measured for COc1cccc(COc2ccc(CC(=O)C3c4cccc(O)c4C(=O)c4c(O)cccc43)cc2)c1 and print it. 1000 nM

Retrieve IC50 measured for CC(C)(C)OC(=O)Nc1ccc(CC(=O)C2c3cccc(O)c3C(=O)c3c(O)cccc32)cc1 and print it. 1800 nM

Retrieve IC50 measured for CN(O)C(=O)Cc1ccc(CC(=O)C2c3cccc(O)c3C(=O)c3c(O)cccc32)cc1 and print it. 700 nM

Retrieve IC50 measured for O=C1c2c(O)cccc2C(C(=O)Cc2ccc(O)cc2)c2cccc(O)c21 and print it. 1700 nM

Retrieve IC50 measured for O=C1c2c(O)cccc2C(C(=O)Cc2ccc(F)cc2)c2cccc(O)c21 and print it. 2600 nM

###

Experiment: Partition coefficient (logP)
Format: physicochemical
Conditions: octanol/water
Label true when logP < 4; otherwise false.

Solved cases below.
- O=C1c2c(O)cccc2C(C(=O)Cc2ccc(Br)cc2)c2cccc(O)c21: false
- O=C1c2c(O)cccc2C(C(=O)Cc2ccc(-c3ccccc3)cc2)c2cccc(O)c21: false
- CC(C(=O)C1c2cccc(O)c2C(=O)c2c(O)cccc21)c1ccccc1 (stereo not given): false

Hello, I'm reviewing records and need to know if logP of N#Cc1ccc(CC(=O)C2c3cccc(O)c3C(=O)c3c(O)cccc32)cc1 is below 4. Could you check? true

Hello, I'm reviewing records and need to know if logP of CSc1ccc(CC(=O)C2c3cccc(O)c3C(=O)c3c(O)cccc32)cc1 is below 4. Could you check? false

###

Items are presented alongside their recorded logP.
Test: Partition coefficient (logP)
Type: physicochemical
Settings: octanol/water

Below, each entry is followed by its recorded logP result.
• O=C1c2c(O)cccc2C(C(=O)Cc2ccc3c(c2)OCO3)c2cccc(O)c21 = 4.06
• O=C1c2c(O)cccc2C(C(=O)Cc2ccccc2Nc2c(Cl)cccc2Cl)c2cccc(O)c21 = 3.91

Now turn to the next compound.
Retrieve logP measured for O=C1c2c(O)cccc2C(C(=O)Cc2ccc(F)cc2)c2cccc(O)c21 and print it. 4.11
